- SYSTEM: PD1/PD-L1 (Homo sapiens, UniProt Q9NZQ7)
- Sequence (Q9NZQ7 19-290): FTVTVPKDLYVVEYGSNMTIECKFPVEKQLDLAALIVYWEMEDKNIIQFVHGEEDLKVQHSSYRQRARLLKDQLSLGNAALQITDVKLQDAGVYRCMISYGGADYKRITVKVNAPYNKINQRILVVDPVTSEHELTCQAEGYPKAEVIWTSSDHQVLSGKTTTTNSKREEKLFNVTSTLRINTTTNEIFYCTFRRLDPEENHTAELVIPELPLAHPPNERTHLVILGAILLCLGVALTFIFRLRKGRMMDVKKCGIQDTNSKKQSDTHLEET
- MEASUREMENT DESCRIPTION: NFAT activity test (TCR Activitor/PD-L1 CHO cells with PD-1/NFAT Reporter-Jurkat cells)
- Assay type: cell-based
- Set-up: host or cells: TCR Activitor/PD-L1 CHO cells; PD-1/NFAT Reporter-Jurkat cells
- MEASUREMENT SETUP: TCR Activitor/PD-L1 CHO cells + PD-1/NFAT Reporter-Jurkat cells, 5 hours, luciferase; read-out: IC50, inhibitory activity on PD1/PD-L1 binding (NFAT activity test)
# label = YES if IC50 < 20 nM else NO

• COc1nc(-c2cccc(-c3cccc(NC(=O)c4cc(OC(F)F)c5c(n4)CN(CCO)CC5)c3Cl)c2Cl)cnc1CN1CC(O)C1 = NO
• COc1nc(-c2cccc(-c3cccc(NC(=O)c4cc(C)c5c(n4)CN(CC(=O)O)CC5)c3Cl)c2C)cnc1CN1CC(O)C1 = NO
• COc1nc(-c2cccc(-c3cccc(NC(=O)c4cc(OC(F)F)c5c(n4)CN(CCO)CC5)c3Cl)c2Cl)cnc1CN1CC2(CC(O)C2)C1 = YES
• COc1nc(-c2cccc(-c3cccc(NC(=O)c4cc(C)c5c(n4)CN(CC4(CO)CC4)CC5)c3Cl)c2Cl)cnc1CN1CC(O)C1 = NO
• Cc1cc(C(=O)Nc2cccc(-c3cccc(NC(=O)c4ccc(CNCCO)cn4)c3C)c2C)nc2c1CCN(CCO)C2 = NO
